# Tested on: Vero E6 infected with SARS-CoV-2
# measurement.protocol: inhibition of SARS-CoV-2 cytopathic effect; higher = more antiviral protection, active = above 15
# condition: 833.33 nM; 48 h
assay.endpoint: inhibition of SARS-CoV-2 cytopathic effect (%)
Respond with the bare value in %.

[ask] Name the recorded inhibition of SARS-CoV-2 cytopathic effect of the compound listed here: `CNC(=O)c1c(I)c(C(=O)NCC(=O)Nc2c(I)c(C(=O)O)c(I)c(C(=O)NCCO)c2I)c(I)c(N(C)C(C)=O)c1I`
[reply] 0.75

[ask] Name the recorded inhibition of SARS-CoV-2 cytopathic effect of the compound listed here: `c1ccc(Cn2c(N3CCNCC3)nc3ccccc32)cc1`
[reply] -3.79

[ask] Name the recorded inhibition of SARS-CoV-2 cytopathic effect of the compound listed here: `CCC[C@H](Nc1nc(-c2ccc(NC(=O)NCC)c(OC)c2)ncc1C)c1cccnc1`
[reply] -0.69

[ask] Name the recorded inhibition of SARS-CoV-2 cytopathic effect of the compound listed here: `CC(=O)Oc1ccc(C(c2ccc(OC(C)=O)cc2)c2ccccn2)cc1`
[reply] 1.04

[ask] Name the recorded inhibition of SARS-CoV-2 cytopathic effect of the compound listed here: CNc1cc(OC)c(C(=O)NC2CCN(Cc3ccccc3)C2C)cc1Cl (centres undefined) [nemonapride]
[reply] -1.52

[ask] Name the recorded inhibition of SARS-CoV-2 cytopathic effect of the compound listed here: `O=C(c1ccccn1)c1cnn2c(-c3ccncc3)ccnc12`
[reply] -3.04

[ask] Name the recorded inhibition of SARS-CoV-2 cytopathic effect of the compound listed here: `O=c1c(-c2ccc(O)cc2)coc2cc(O)ccc12`
[reply] -0.66

[ask] Name the recorded inhibition of SARS-CoV-2 cytopathic effect of the compound listed here: `COc1cc(N2CCC(O)CC2)ccc1Nc1cc(Nc2ccccc2S(=O)(=O)C(C)C)c2cc[nH]c2n1`
[reply] 0.98

[ask] Name the recorded inhibition of SARS-CoV-2 cytopathic effect of the compound listed here: `Nc1nc(/C(=C/CC(=O)O)C(=O)N[C@@H]2C(=O)N3C(C(=O)O)=CCS[C@H]23)cs1`
[reply] 2.04

* * *

# Tested on: Vero E6 infected with SARS-CoV-2
# measurement.protocol: inhibition of SARS-CoV-2 cytopathic effect; higher = more antiviral protection, active = above 15
# condition: 833.33 nM; 48 h
I'd be grateful if you could share measured inhibition of SARS-CoV-2 cytopathic effect for these entries.

[ask] Name the recorded inhibition of SARS-CoV-2 cytopathic effect of the compound listed here: `O=C(c1cc(S(=O)(=O)Nc2ccccc2F)c(F)cc1Cl)N1CCN2CCC[C@@H]2C1`
[reply] 8.06% (inactive)

[ask] Name the recorded inhibition of SARS-CoV-2 cytopathic effect of the compound listed here: O=C1NCC2(CCN(CCc3ccccc3)CC2)O1 [fenspiride]
[reply] 0.71% (inactive)

[ask] Name the recorded inhibition of SARS-CoV-2 cytopathic effect of the compound listed here: `CC(C)(C)c1ccc(S(=O)(=O)/C=C/C#N)cc1`
[reply] 5.32% (inactive)

[ask] Name the recorded inhibition of SARS-CoV-2 cytopathic effect of the compound listed here: `CN(C)C(=N)NC(=N)N`
[reply] 1.97% (inactive)

[ask] Name the recorded inhibition of SARS-CoV-2 cytopathic effect of the compound listed here: `CN1[C@@H]2CC[C@H]1C[C@@H](OC(=O)[C@H](CO)c1ccccc1)C2`
[reply] -0.12% (inactive)

[ask] Name the recorded inhibition of SARS-CoV-2 cytopathic effect of the compound listed here: `CC[C@H](C)C(=O)O[C@H]1C[C@H](O)C=C2C=C[C@H](C)[C@H](CC[C@@H](O)C[C@@H](O)CC(=O)O)[C@H]21`
[reply] 6.3% (inactive)

[ask] Name the recorded inhibition of SARS-CoV-2 cytopathic effect of the compound listed here: `Cn1cncc1[C@@](N)(c1ccc(Cl)cc1)c1ccc2c(c1)c(-c1cccc(Cl)c1)cc(=O)n2C`
[reply] 2.2% (inactive)

[ask] Name the recorded inhibition of SARS-CoV-2 cytopathic effect of the compound listed here: `CC1(C)CCC(C)(C)c2cc(C3(c4ccc5cc(C(=O)O)ccc5c4)SCCS3)ccc21`
[reply] 1.35% (inactive)

[ask] Name the recorded inhibition of SARS-CoV-2 cytopathic effect of the compound listed here: `CC(C)Cn1cnc2c(N)nc3ccccc3c21`
[reply] 2.38% (inactive)

[ask] Name the recorded inhibition of SARS-CoV-2 cytopathic effect of the compound listed here: `COc1cc2c(cc1OC)-c1cc3nc4ccccc4nc3n1C(C)(C)C2`
[reply] -2.74% (inactive)
